Listing: pIC50 of selected compounds
# Tested on: methicillin-resistant S. aureus ATCC 33591 (MRS)
# method description: Antibacterial broth dilution assay against MRSA (modified CLSI)
# Type: cell-based, Staphylococcus aureus
# measurement context: in vitro, converted with molecular weight
Scale explanation: pIC50 corresponds to minus log10 of a concentration expressed in moles per litre.

Asked: Requested read-out: pIC50. Entry: c1cc(CN2CCN3CCNCCN(CC3)CC2)ccc1CN1CCN2CCNCCN(CC2)CC1
Given back: 5.67

Asked: Follow-up entry: [Cl-].[Cl-].[Mn+2].c1ccc(CN2CCN3CCN(CC2)CCN(Cc2ccccc2)CC3)cc1
Given back: 4.94

Asked: Now the same for CC(=O)[O-].F[P-](F)(F)(F)(F)F.[Ni+2].c1ccc(CN2CCCN3CCCN(CCCN(Cc4ccccc4)CC3)CC2)cc1 [DJD22, [Ni(Bn2PBCyclam)(OAc)]PF6]
Given back: 5.17

Asked: Next compound up: c1ccc(CN2CCN3CCCN(CC2)CCN(Cc2ccccc2)CC3)cc1
Given back: 5.57

Next:
Asked: Name the reported pIC50 value associated with the compound c1cc(CN2CCCN3CCCN(CCCNCC3)CC2)ccc1CN1CCCN2CCCN(CCCNCC2)CC1
Given back: 5.37

Asked: // query: CC(=O)[O-].CC(=O)[O-].CN1CCCN2CCN(CCCN(Cc3cccc(CN4CCCN5CCN(C)CCCN(CC5)CC4)c3)CC2)CC1.F[P-](F)(F)(F)(F)F.F[P-](F)(F)(F)(F)F.[Ni+2].[Ni+2] [CDG009, [Ni2(m-CB-Cyclams)(OAc)2][PF6]2]
Given back: 5.31

Asked: What about [Cl-].[Cl-].[Mn+2].c1ccc(CN2CCCN3CCN(CCCN(Cc4ccccc4)CC3)CC2)cc1 ?
Given back: 5.55

Asked: Okay, and c1ccc(CN2CCCN3CCCN(CCCN(Cc4ccccc4)CC3)CC2)cc1 ?
Given back: 4.93

====

# System: methicillin-resistant S. aureus ATCC 33591 (MRS)
# method description: Antibacterial broth dilution assay against MRSA (modified CLSI)
# Type: cell-based, Staphylococcus aureus
# measurement context: in vitro, converted with molecular weight
Reported pIC50 values for a set of compounds
// pIC50 here means minus log10 of the molar concentration (mol/L)

# annotated cases, reported pIC50 shown
Asked: For methicillin-resistant S. aureus ATCC 33591 (MRS), provide pIC50 of c1ccc(CN2CCN3CCN(CC2)CCN(Cc2ccccc2)CC3)cc1 please.
Given back: 4.65

Asked: [Cl][Mn-2]([Cl])([Cl])[Cl].[Mn+2].c1ccc(CN2CCCN3CCCN(CCCN(Cc4ccccc4)CC3)CC2)cc1 [BME08, [Mn(Bn2PBCyclam)][MnCl4]] ?
Given back: 5.92

Asked: Please do the same for CC(=O)[O-].F[P-](F)(F)(F)(F)F.[Co+2].c1ccc(CN2CCCN3CCCN(CCCN(Cc4ccccc4)CC3)CC2)cc1 [DJD21, [Co(Bn2PBCyclam)(OAc)]PF6] as well.
Given back: 5.27

# context switch: different compound, same pIC50
Asked: Could you share what pIC50 was measured for CN1CCCN2CCN(CCCN(Cc3ccc(CN4CCCN5CCN(C)CCCN(CC5)CC4)cc3)CC2)CC1.[Cl-].[Cl-].[Cl-].[Cl-].[Mn+2].[Mn+2] [JGL16A] , tested on methicillin-resistant S. aureus ATCC 33591 (MRS)?
Given back: 5.03
